The following compounds are listed with their measured pIC50 values.
Test system: L6
Assay: Cytotoxicity against rat L6 cells
Type: cell-based
Give only the number. pIC50 is defined as minus log10 of concentration in molar units.

Here is how some compounds turned out for pIC50.
Smiles data: c1cc2c(cc1NC1=NCCN1)Cc1ccc(NC3=NCCN3)cc1C2
pIC50: 4.43
--
Smiles data: N=C(N)Nc1ccc(CCc2ccc(NC(=N)N)cc2)cc1
pIC50: 5.96

Annotate the compound N=C(N)Nc1ccc(N2CCCCC2)cc1 with its measured pIC50.
3.63

Please indicate pIC50 recorded for c1ccc(Sc2ccc(NC3=NCCN3)cc2)cc1
4.55
